Data provenance: the DeepSol protein solubility set

assay: soluble on expression in E. coli; label from the status in PepcDB or PDB records

Seq	soluble on expression in E. coli
GPGSMAIEVATSTRLQYARMLRSMLEMDRTPLDMMILGFQKIAARSETRQTRQARPVTEEEMNEYIRSRTDWKERVVVRLAWMTASRWSEIAALNPNNFKLKPDGALILDWPVVPKTARADPHRAFRFVRIRGQDAFDIIKLCRTLQENEKLTNITNAQVERALAPWDATAHSIERGALRHAAQIVEKYNLDPHVISQLAKHVNPFDLPQNTV	soluble
MSLKHPDPAQKVEGTTATTPTKVAAFFDLDKTIIAMSSTYAYGREFMNSGLISPVEALQLSLAQATYMFAGHTSEQMDNTRDQLTAMIRGWEVQQVRSIAEETMHSVVTPTIYAEARELIEHHQELGHDVIIISASVKELVEPIARELGVHKTVTTVLEAHDGMYTGEVLFYCKGDAKAQSILDLAEANNYDLSLSFAYSDSFTDLPMLEAVGNPAAVNPDRALKKIALEQGWKILSFKNPEPLFQEGHHHHHH	soluble
MKFAIFVNTTREKALELARELTAWLDARSIDYVFDPQSAKALGCGKWEEKADLSQHCDAFVALGGDGTLLLASHYSRSKPVVGINVGDLGFLTEFSPDEMWVAMDHLVSGNYSIHTRSQLEATLESGESLTSLNDVIFEKGSAARRLPAFTILLDDEMLGSYRADGIIIATSTGSTAYSMSAGGPIIAPKSNVFVITPICPHMLTVRPIVISDDKTIKISVDSQSGEFPLKMDGIQKKLLAPGEVVTVKKSPHHINLVANEKRNYCEILRKKLLWSHEHPTGELEHHHHHH	not soluble
MRKIHFTDKYLLSPYHPVTVLVAGAGGTGSQVITSLARMSVALQALGHPGLHLTAFDPDTVTEANIGRQLFSETELGLNKATALVTRVNRFFGYAWEARECRYPIITKEGDKSVPLANIIITCTDNTRSRLDLWRFLKKYREYKKNDEKAPIYWMDFGNAQTTGQVLIGNIRSKISQPASSEYLPMPRMNVITEEVSYSTIREEDSGPSCSLAEALRKQDLFINSMLAQIGCDILWCMFREGRTFYRGAYLNLDTLRVNPIPV	not soluble
MSERVKVAILGSGNIGTDLMYKLLKNPGHMELVAVVGIDPKSEGLARARALGLEASHEGIAYILERPEIKIVFDATSAKAHVRHAKLLREAGKIAIDLTPAARGPYVVPPVNLKEHLDKDNVNLITCGGQATIPLVYAVHRVAPVLYAEMVSTVASRSAGPGTRQNIDEFTFTTARGLEAIGGAKKGKAIIILNPAEPPILMTNTVRCIPEDEGFDREAVVASVRAMEREVQAYVPGYRLKADPVFERLPTPWGERTVVSMLLEVEGAGDYLPKYAGNLDIMTASARRVGEVFAQHLLGKPVEEVVA	soluble
MNQYSSFSPSSPSSSSRPSGGGGQSSHQTTPKSSGNPRQQQAQPRHRQRKAQSSSPASLAAFASSSVCSSPSARNVPLPPVEWLNQLQVPGQLENSSRPSSSISMTSSASSSTSSLSSSDAPMITMTPRRAAQKEMKPKTDVLGVRVCPLQLIAAIASA	not soluble

---

experiment: soluble on expression in E. coli; label from the status in PepcDB or PDB records

Seq	soluble on expression in E. coli
MGSDKIHHHHHHMLPMADQIQTLQEQVLQARSNGQKLNIVGGGTKSFMGRQGCAEAGTLSLAEHTGVVEYHPVELVLTVRAGTPLKEIEAVLAEQGQCLHFEPPHFGDASTIGGTLACNLSGPARPWAGSVRDQVLGIRLLNGKGEHLRFGGQVMKNVAGYDVSRLQAGAMGTLGVITEISLKVMPKPAATTTLVREMTMDEVVEYMNRRAGEPKPITGACWVDGKVYLRLAGAKSAVEATAEQWGGQVLADGEQFWRQVQDMQHPFFDDPELPLWRFSVDSTAKTPELDGPWMIDWAGSQRWYRGQASLDQLEPLARAAGGQVSLFRGGDRTGEVMHGQPQALKTIQQRVKKSFDPDAIFNPGRLYSWL	not soluble
MGSDKIHHHHHHMKLRKQLAQQIVTSIKDVCQQDINFINTKGIIFASTNPKRVGEFHEIGLKVAQTGQMIEVTDQESYFGTQAGINIPFYYNCELLATIGISGNPNQVGKYALLAQKMTRLILKEHELDYLDFGRKNEASIVLHHLVEGRELDYYYLNQFLNQYHLSEKTDYRLLTFEINSQKQKLLLSQSEMSLLNFFDKLDTAIYTFNYPNQYWLLLSDHMFDYYYPNILSKFECEKGLYKVGIGQKSSLSLLKRSYETSILALKALKGQQKVNLVDDLDLELLLTSIDSNIKQYVLNKALVNLSENDKILLNSYFKHNLSLKECSQELFIHKNTVQYRLNKIYESTQLNPRNFKDATLLYLALKSEDINLHKL	not soluble
MGSDKIHHHHHHMETVYFKTLLAVVETGSFSRAAERLCITQSAVSQRIKLLEGRYGYTLIDRAGNFLVPTAAGELVIQKARVIIEHELALLGALKLLPAKTVISFCCSPCFGTVFLPALVRDFVLRNSEQIDFRCVLGSSQGAVRGLRDTDFNIIVIEHCTPLDLSPYDVISLPNDEIIFVSNPATGLDVPEPDLSQLLNLPVIMRKEGCSGTEQLAANLARFGKVLEDFRSVTGLDDPRLIVQTVKTEPYLAFVPKSLVLKELAEGSLRAHTVKGFSHARFRSLVTAPKRYSDPCRSNFIKAVMETVCHISAVSMPGDGPGSRWHKKRPSGRRAPLNSAVTNNAAI	not soluble
MPILQELRLGKRISRDISLADLYQEWIELKILPSSRSEETKKKYLLRKNTIERLFGNKKVTQIRASEYQRIMNKYGQTVGRNFLGRLNTGIHQSIQMAIADKVLIDDFTQHVELFSSKEQQMTLEHHHHHH	not soluble
MMKAKVIDAVSFSYILRTVGDFLSEANFIVTKEGIRVSGIDPSRVVFLDIFLPSSYFEGFEVSQEKEIIGFKLEDVNDILKRVLKDDTLILSSNESKLTLTFDGEFTRSFELPLIQVESTSPPSVNLEFPFKAQLLTITFADIIDELSDLGEVLNIHSKENKLYFEVIGDLSTAKVELSTDNGTLLEASGADVSSSYGMEYVANTTKMRRASDSMELYFGSQIPLKLRFKLPQEGYGDFYIAPRAD	soluble
MHHHHHHSSGVDLGTENLYFQSMKYILVTGGVISGIGKGIIASSVGTILKSCGLHVTSIKIDPYINIDAGTFSPYEHGEVFVLDDGGEVDLDLGNYERFLDIRLTKDNNLTTGKIYQYVINKERKGDYLGKTVQVVPHITDAIQEWVMRQALIPVDEDGLEPQVCVIELGGTVGDIESMPFIEAFRQFQFKVKRENFCNIHVSLVPQPSSTGEQKTKPTQNSVRELRGLGLSPDLVVCRCSNPLDTSVKEKISMFCHVEPEQVICVHDVSSIYRVPLLLEEQGVVDYFLRRLDLP	soluble
MEIMLTYKTFKILGREILIGVVWEEKIQGIAYSLDGLEFLKDQLSRVTSHLKSRGVKVNLLEEKSRYPDLVFDVLKGKIGNEKGFEELSLEGLTRFEIKVYSWLVKNVKRGEVITYGKVAKALKTSPIAVGGAMKRNPYPIIVPCHRVVGKNNPWLYTPKPSYKKFLLEVEGWIS	soluble
MPTKLSNKYHDEIEQNGFTVVRNFLSPQEIEKYTKASEALVQYARDGNWPHVRTRGKQFPPWPKNFSPDIWGVSGLLHPDLGELSKPFHDLYSDEKLLNVVCDILLIEKTDLSMELLNMLINPLTDFELDWHRDTIKPEVTPEEEAEDLLKFPYAGAQFNLALTEDDCLIAIPGSHNRVRTTEEREKTIDPNRRKEFITGEIRVQLQPGDLVFYNNNILHRAAYSSKNKRLTLHGSYGNVNQGKSRAKGILQHGVAEWLPRLETKNTNLKMLQEKLLNLAKEFEGVELGYALDG	soluble
MRPDVAFALPALAGGGVERVYLDLAGAMVKEGLRVDFVLARAEGPLLAQLPQGVRLWDLGVPRRLPLLRAYTPLGVYLAQARPRVVLPDWDYLDWVPLQAAWRSRTPFLWVLHNAPAYLKDVPNPVKRHTALWAARQTLKRAVNHPLGRVGAVSRGVAQAFARFGGVPEERICVLPNPIHVDRVRRLSHENVPLPATPYFLALGRLHPQKGFSLLLEAFSIFAKHHPDVHLLILGEGPERPRLEKLAHTLGLTSRVAFLGFVVNPYPYLRGAKALVITSRYEGFSMVALEALALRVPVVAVESEGGLLEALGDGRFGIVTPRSPQALAHAMERVLSDGFAWDETALKDHLNQYSPEAALRSYMSVLEEIWR	soluble
MEYSDIRDRILLATLPNVPFDGWSGKALRLGAESAGFDREAADRAFPGGPAEAVGHFIDLANRMMEADLGARDLSGLKLPEKIHLAIKLRLERWAGDREAVRRGLALLSLPGHARLSLKSTYATVDGIWHAVGDRSVDFSFYTKRAELAAIYGATLLVWLEDTSEESAETWAFLDRRLEGVIRLRKARAKLRERMTHLPTLPRLLNPLDLVRKPFGLMRSMRMRLEHHHHHH	soluble
